This collection of values is drawn from patent US8486951B2.

Reported IC50, PDGFRβ (Homo sapiens).

Solved entries:
INSERT INTO assay_data (compound, endpoint_name, data_value) VALUES
  ('Cn1cc(-c2cc(Oc3ccc(NC(=O)C4(C(=O)NCc5ccccc5)CC4)c(F)c3F)ccn2)cn1 [Example 3]', 'IC50', '< 10 µM'),
  ('Cn1cc(-c2cc(Oc3ccc(NC(=O)C4(C(=O)Nc5ccc(Cl)cc5)CC4)c(F)c3)ccn2)cn1 [Example 22]', 'IC50', '< 2 µM'),
  ('Cn1cc(-c2cc(Oc3ccc(NC(=O)C4(C(=O)Nc5ccc(F)cc5)CC4)c(F)c3)ccn2)cn1 [Example 7]', 'IC50', '< 10 µM'),
  ('O=C(Cc1ccc(F)cc1)NC(=O)Nc1ccc(Oc2ccnc(-c3nc(C(F)(F)F)c[nH]3)c2)cc1 [Example 39]', 'IC50', '< 2 µM'),
  ('Cc1cc(NC(=O)C2(C(=O)Nc3ccc(F)cc3)CC2)c(F)cc1Oc1ccnc(-c2cnn(C)c2)c1 [Example 51]', 'IC50', '< 2 µM');

Query block: Read off the recorded IC50 for C[C@H](NC(=O)C1(C(=O)Nc2ccc(Oc3ccnc(-c4cnn(C)c4)c3)c(F)c2)CC1)c1ccccc1 [Example 16]
Result block: < 10 µM
